Numbers sourced from patent US8133909B2.

- target: human orexin-2 (hOX2) receptors (Homo sapiens)
- Construct: expressed in transfected cells
- Sequence (O43614 whole entry): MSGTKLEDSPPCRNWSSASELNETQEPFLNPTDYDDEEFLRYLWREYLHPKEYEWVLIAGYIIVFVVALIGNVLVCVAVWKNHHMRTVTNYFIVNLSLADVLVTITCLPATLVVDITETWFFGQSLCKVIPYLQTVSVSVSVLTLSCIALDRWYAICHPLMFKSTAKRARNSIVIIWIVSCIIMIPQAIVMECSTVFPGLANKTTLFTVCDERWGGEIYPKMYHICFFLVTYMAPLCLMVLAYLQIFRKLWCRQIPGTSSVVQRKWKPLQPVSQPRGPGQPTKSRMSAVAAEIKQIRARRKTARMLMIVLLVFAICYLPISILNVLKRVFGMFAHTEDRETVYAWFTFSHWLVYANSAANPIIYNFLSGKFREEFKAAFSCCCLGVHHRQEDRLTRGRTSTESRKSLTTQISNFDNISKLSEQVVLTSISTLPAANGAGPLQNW
- method: Intracellular Ca2+ mobilization assay (FLIPR), antagonism of orexin-A
- Type: cell-based
- settings: CHO(dHFr-) cells stably expressing hOX2; orexin-A at EC80 as agonist; antagonist applied 25 min before; Kb=IC50/(1+[A]/EC50); read-out: Kb (μM) OX2R (human)
Where a name gives a salt, the structure may show the parent alone.
quantity: Kb (µM)

- compound: "Cc1ccc(N(CCc2ccc(C(F)(F)F)nc2)C(=O)[C@H](O)c2ccccc2)cc1C"
  quantity: "Kb"
  readout-value: 0.0159

A = Cc1ccc(N(CCc2ccc(C(F)(F)F)nc2)C(=O)[C@@H](NC2(CN)COC2)c2ccccc2)cc1C
B = Cc1ccc(N(CCc2ccc(C(F)(F)F)nc2)C(=O)[C@@H](N)c2ccccc2)cc1C
C = Cc1ccc(CCN(C(=O)[C@@H](N)c2ccccc2)c2ccc(C)c(C)c2)nc1 [Example 21, hydrochloride]
// smallest Kb at index 0, largest at the end API: response body holds the labels in the requested order.
B, C, A
(B: 0.0007 µM, C: 0.0047 µM, A: 0.0263 µM)
